ASSAY_SYSTEM: Epidermal growth factor receptor (Homo sapiens, UniProt P00533)
Sequence (P00533 whole entry): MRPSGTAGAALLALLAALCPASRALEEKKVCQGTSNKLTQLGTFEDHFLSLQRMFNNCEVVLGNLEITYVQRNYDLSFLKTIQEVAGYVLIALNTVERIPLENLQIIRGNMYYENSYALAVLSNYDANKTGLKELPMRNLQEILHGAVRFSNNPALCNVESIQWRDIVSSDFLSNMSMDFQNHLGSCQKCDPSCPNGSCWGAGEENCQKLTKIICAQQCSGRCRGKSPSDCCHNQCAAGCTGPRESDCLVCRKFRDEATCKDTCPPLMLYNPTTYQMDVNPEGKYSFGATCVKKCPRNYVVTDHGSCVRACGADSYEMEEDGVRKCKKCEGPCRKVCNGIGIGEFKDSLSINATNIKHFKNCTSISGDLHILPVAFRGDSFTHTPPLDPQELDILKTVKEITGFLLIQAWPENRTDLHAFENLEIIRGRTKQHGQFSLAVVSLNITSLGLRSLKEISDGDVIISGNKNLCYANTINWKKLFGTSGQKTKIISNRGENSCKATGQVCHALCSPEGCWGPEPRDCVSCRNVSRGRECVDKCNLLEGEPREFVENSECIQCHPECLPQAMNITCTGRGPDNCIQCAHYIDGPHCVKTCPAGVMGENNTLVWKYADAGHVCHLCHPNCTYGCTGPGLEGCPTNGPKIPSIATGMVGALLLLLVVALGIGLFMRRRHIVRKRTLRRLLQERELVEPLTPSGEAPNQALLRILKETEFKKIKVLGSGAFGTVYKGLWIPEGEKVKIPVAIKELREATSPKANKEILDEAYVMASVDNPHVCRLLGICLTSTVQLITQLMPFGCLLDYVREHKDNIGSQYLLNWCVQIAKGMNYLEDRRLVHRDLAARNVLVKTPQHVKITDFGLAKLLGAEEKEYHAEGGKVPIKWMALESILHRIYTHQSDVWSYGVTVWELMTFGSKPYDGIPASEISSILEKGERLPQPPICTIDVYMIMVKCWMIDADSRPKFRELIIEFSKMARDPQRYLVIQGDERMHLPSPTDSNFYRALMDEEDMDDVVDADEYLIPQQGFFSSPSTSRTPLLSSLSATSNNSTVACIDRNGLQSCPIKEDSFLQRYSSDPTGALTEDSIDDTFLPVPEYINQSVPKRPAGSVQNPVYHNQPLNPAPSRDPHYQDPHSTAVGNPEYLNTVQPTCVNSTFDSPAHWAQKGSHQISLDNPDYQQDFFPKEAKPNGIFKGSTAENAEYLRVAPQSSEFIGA
PARAMETER: IC50 (nM)

[[record]]
molecule_smiles = "COc1cc(N2CCC(N3CCN(C)CC3)CC2)c(C)cc1Nc1ncc(Br)c(Nc2ccc(C)cc2P(C)(C)=O)n1"
assay_system = "Epidermal growth factor receptor (Homo sapiens, UniProt P00533)"
numeric_result = 63.7


* * *

ASSAY_PROTOCOL: Half life in male Cynomolgus monkey plasma at 3 mg/kg, iv measured after 72 hrs LC-MS/MS analysis
Format: ADME, organism-based, Macaca fascicularis
PARAMETER: half-life (h)

[[record]]
molecule_smiles = "COc1cc(N2CCC(N3CCN(C)CC3)CC2)c(C)cc1Nc1ncc(Br)c(Nc2ccc(C)cc2P(C)(C)=O)n1"
parameter = "half-life"
result_unit = "h"
numeric_result = 12.2


* * *

ASSAY_SYSTEM: EML4-ALK (Homo sapiens, UniProt Q9UM73)
PARAMETER: IC50 (nM)

[[record]]
molecule_smiles = "COc1cc(N2CCC(N3CCN(C)CC3)CC2)c(C)cc1Nc1ncc(Br)c(Nc2ccc(C)cc2P(C)(C)=O)n1"
result_unit = "nM"
numeric_result = 1.22


* * *

ASSAY_PROTOCOL: AUC (0 to infinity) in male Cynomolgus monkey plasma at 3 mg/kg, iv measured after 72 hrs LC-MS/MS analysis
Format: ADME, organism-based, Macaca fascicularis
PARAMETER: AUC(0-inf) (ng·h/mL)

[[record]]
molecule_smiles = "COc1cc(N2CCC(N3CCN(C)CC3)CC2)c(C)cc1Nc1ncc(Br)c(Nc2ccc(C)cc2P(C)(C)=O)n1"
parameter = "AUC(0-inf)"
numeric_result = 9870


* * *

ASSAY_SYSTEM: Cytochrome P450 2C9 (Homo sapiens)
Sequence (P11712 whole entry): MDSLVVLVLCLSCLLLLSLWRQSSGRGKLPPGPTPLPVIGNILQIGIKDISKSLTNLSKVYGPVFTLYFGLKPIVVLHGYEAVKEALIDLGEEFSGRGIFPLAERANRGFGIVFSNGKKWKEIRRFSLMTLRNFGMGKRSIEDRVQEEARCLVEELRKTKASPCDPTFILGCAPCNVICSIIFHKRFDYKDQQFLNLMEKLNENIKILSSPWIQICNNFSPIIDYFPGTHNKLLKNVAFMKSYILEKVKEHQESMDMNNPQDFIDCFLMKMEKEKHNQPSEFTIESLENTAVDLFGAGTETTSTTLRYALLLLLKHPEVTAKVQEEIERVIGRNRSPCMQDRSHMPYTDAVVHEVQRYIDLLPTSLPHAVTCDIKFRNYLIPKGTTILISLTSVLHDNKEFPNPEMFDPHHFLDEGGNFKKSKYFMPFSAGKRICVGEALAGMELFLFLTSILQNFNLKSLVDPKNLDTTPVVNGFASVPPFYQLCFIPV
PARAMETER: IC50

[[record]]
molecule_smiles = "COc1cc(N2CCC(N3CCN(C)CC3)CC2)c(C)cc1Nc1ncc(Br)c(Nc2ccc(C)cc2P(C)(C)=O)n1"
parameter = "IC50"
result = "> 50 µM"


* * *

ASSAY_SYSTEM: ALK tyrosine kinase receptor (Homo sapiens, UniProt Q9UM73, R1275Q)
Sequence (Q9UM73 19-1620 R1275Q limits assumed): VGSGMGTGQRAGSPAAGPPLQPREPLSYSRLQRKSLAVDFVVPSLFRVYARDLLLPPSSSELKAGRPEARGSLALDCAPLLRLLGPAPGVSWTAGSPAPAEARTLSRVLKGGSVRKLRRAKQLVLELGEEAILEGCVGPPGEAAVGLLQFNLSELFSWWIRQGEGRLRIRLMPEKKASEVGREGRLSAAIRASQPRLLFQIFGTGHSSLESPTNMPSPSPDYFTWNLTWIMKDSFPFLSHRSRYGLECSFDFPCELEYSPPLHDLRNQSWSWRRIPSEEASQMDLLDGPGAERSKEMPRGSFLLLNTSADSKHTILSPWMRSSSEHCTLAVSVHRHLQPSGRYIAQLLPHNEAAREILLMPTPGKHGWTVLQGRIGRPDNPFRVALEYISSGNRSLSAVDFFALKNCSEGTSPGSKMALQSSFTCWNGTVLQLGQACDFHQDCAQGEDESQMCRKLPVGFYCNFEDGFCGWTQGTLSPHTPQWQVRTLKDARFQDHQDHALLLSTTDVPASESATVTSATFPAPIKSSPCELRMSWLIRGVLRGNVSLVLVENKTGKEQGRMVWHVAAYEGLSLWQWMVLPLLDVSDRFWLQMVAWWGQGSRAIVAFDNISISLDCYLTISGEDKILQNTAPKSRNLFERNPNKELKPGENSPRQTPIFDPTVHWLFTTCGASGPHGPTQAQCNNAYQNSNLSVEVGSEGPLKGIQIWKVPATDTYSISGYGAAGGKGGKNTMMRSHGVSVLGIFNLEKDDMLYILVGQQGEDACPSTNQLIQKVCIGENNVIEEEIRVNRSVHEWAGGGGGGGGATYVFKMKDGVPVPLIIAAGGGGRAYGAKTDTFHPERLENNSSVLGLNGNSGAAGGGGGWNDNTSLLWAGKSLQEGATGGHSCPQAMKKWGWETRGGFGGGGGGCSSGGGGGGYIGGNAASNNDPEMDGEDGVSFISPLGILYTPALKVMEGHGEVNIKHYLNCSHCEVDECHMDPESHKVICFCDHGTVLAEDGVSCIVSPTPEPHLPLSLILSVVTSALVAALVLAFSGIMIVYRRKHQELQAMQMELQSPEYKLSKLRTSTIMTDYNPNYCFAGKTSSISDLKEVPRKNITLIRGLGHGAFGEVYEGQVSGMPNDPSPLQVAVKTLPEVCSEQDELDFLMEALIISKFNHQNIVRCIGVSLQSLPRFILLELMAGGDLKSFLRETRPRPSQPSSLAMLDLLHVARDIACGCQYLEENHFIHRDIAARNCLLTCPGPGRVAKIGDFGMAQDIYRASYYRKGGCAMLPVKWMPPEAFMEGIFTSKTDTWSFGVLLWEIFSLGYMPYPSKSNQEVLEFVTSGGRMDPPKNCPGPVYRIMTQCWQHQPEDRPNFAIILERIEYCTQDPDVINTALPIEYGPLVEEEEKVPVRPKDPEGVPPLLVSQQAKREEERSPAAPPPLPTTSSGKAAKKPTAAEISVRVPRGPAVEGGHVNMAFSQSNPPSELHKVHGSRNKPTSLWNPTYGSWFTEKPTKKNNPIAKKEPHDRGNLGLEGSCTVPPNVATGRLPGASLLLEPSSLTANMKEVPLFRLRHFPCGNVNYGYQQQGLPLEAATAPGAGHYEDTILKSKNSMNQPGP
ASSAY_PROTOCOL: Inhibition of N-terminal GST-fused cytoplasmic domain human ALK R1275Q mutant (1058 to 1620 end residues) extracted from baculovirus expression system using Srctide as substrate incubated for 1 to 5 hrs in presence of ATP/Mg by off-chip Mobility shift assay
PARAMETER: IC50

[[record]]
molecule_smiles = "COc1cc(N2CCC(N3CCN(C)CC3)CC2)c(C)cc1Nc1ncc(Br)c(Nc2ccc(C)cc2P(C)(C)=O)n1"
result = "1.52 nM"


* * *

ASSAY_SYSTEM: Cytochrome P450 2C8 (Homo sapiens)
Sequence (P10632 whole entry): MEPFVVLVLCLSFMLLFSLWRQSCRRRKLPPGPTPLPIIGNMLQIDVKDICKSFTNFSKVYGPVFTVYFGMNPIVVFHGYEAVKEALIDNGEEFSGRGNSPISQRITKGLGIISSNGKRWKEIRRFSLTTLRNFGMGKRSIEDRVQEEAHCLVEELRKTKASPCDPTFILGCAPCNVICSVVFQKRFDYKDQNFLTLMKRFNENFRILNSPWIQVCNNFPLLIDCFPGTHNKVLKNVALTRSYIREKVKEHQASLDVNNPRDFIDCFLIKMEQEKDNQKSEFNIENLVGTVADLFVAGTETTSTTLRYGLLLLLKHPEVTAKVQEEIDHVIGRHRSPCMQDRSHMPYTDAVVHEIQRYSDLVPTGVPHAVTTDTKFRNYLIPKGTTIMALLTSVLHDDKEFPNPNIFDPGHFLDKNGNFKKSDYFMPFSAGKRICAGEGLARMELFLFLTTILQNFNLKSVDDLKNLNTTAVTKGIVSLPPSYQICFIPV
PARAMETER: IC50

[[record]]
molecule_smiles = "COc1cc(N2CCC(N3CCN(C)CC3)CC2)c(C)cc1Nc1ncc(Br)c(Nc2ccc(C)cc2P(C)(C)=O)n1"
parameter = "IC50"
result = "> 50 µM"


* * *

ASSAY_PROTOCOL: Tmax in male Sprague-Dawley rat plasma at 10 mg/kg, po measured upto 72 hrs
Assay type: ADME, organism-based
PARAMETER: Tmax (h)

[[record]]
molecule_smiles = "COc1cc(N2CCC(N3CCN(C)CC3)CC2)ccc1Nc1ncc(Cl)c(Nc2ccccc2P(C)(C)=O)n1"
result_unit = "h"
numeric_result = 3

[[record]]
molecule_smiles = "COc1cc(N2CCC(N3CCN(C)CC3)CC2)c(C)cc1Nc1ncc(Br)c(Nc2ccc(C)cc2P(C)(C)=O)n1"
result_unit = "h"
numeric_result = 3


Data credit: ChEMBL document CHEMBL6114963
